target: 11-beta-hydroxysteroid dehydrogenase 1 [23-292,A23S,F278E] (Homo sapiens, UniProt P28845, A23S/F278E); construct: 23-292; test: Scintillation Proximity Assay (SPA); settings: pH 6.5; 23 °C
Sequence (P28845 as listed by the source A23S/F278E): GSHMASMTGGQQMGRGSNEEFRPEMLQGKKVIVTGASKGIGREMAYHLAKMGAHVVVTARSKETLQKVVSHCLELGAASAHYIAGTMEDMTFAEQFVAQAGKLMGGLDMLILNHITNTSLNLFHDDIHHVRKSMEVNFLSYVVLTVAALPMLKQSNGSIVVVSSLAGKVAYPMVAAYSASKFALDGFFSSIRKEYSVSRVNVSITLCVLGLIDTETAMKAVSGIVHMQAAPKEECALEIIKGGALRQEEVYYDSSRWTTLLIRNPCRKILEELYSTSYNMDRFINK
pIC50: −log10 of the molar value.
READOUT: pIC50

Look up pIC50 for this compound: O=C(c1cncc(CS(=O)(=O)c2c(Cl)cccc2Cl)c1)N1CCOCC1 [pyridine amide, 26] < 5.00
